# test-system: Acetylcholinesterase (Mus musculus) (UniProt P21836);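 also: enzyme taken from mouse brain, acetylthiocholine iodide as the substrate, read after 30 min with the Ellman method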
# Sequence (P21836 whole entry): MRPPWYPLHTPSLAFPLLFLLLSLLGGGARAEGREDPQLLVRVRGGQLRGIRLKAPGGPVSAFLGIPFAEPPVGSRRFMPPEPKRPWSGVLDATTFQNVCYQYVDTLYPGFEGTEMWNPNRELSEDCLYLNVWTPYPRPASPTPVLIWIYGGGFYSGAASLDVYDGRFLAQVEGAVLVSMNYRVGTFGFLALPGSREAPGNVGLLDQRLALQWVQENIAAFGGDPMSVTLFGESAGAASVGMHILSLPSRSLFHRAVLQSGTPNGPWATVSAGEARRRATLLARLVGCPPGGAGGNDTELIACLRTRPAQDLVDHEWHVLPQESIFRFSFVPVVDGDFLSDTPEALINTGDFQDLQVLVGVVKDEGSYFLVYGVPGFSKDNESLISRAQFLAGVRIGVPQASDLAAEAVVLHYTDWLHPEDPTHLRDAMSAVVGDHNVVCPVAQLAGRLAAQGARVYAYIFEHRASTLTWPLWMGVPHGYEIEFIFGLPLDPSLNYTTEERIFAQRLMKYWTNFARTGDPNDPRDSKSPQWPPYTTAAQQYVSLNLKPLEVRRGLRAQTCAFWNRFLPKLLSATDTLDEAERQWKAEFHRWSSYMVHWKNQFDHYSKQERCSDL
# protocol-conditions: at 10 µM
# Description: Inhibition of mouse brain AChE at 10 uM using acetylthiocholine iodide as substrate measured after 30 mins by Ellman's method
parameter-measured: inhibition

smiles-str	test-system	test-value
CCN(C)CCCCOc1ccc2c(=O)c(-c3ccc(OCCN4CCCCC4)cc3)coc2c1	Acetylcholinesterase (Mus musculus) (UniProt P21836)	92.8%
O=c1c(-c2ccc(O)cc2)coc2cc(OCCCCN3CCCCC3)ccc12	Acetylcholinesterase (Mus musculus) (UniProt P21836)	63.4%
COc1ccc(-c2coc3cc(OCCN4C(=O)c5ccccc5C4=O)ccc3c2=O)cc1	Acetylcholinesterase (Mus musculus) (UniProt P21836)	11.2%
COc1ccc(-c2coc3cc(OCCN)ccc3c2=O)cc1.Cl	Acetylcholinesterase (Mus musculus) (UniProt P21836)	16.9%

# input for lookup
Supply recorded inhibition for `COc1ccc(-c2coc3cc(OCCNC4CCCC4)ccc3c2=O)cc1` here.
78.5%

###

# test-system: Histamine H3 receptor (Homo sapiens)
# Sequence (Q9Y5N1 whole entry): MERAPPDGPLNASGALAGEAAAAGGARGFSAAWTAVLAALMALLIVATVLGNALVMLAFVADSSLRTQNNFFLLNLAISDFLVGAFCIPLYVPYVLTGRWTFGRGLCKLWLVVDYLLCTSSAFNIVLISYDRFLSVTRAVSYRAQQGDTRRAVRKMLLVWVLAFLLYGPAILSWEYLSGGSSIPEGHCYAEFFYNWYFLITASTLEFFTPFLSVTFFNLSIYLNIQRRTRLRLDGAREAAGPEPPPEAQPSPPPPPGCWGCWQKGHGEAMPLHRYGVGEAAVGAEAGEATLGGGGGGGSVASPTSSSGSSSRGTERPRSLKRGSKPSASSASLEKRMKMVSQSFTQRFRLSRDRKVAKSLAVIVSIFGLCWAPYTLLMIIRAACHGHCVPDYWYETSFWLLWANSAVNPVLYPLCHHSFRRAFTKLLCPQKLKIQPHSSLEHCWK
# test-name: Inhibition of human H3R expressed in methylhistamine-induced human H3-bla U2OS cells at 10 uM incubated for 30 mins by beta-lactamase complementation technology relative to control
# Type: cell-based
Listed here: items and their measured inhibition.
Write the number in % without appending the unit.

smiles-str	inhibition, %
COc1ccc(-c2coc3cc(OCCNC4CCCC4)ccc3c2=O)cc1	47.1

Supply recorded inhibition for `COc1ccc(-c2coc3cc(OCCOCCN4CCCCC4)ccc3c2=O)cc1` here.
30.3

Supply recorded inhibition for `O=c1c(-c2ccc(OCCN3CCCCC3)cc2)coc2cc(OCCCCN3CCCCC3)ccc12` here.
72.4

Supply recorded inhibition for `COc1ccc(-c2coc3cc(OCCNC4CCCCC4)ccc3c2=O)cc1` here.
41
